Assay: in vivo
Conditions: mouse, ip
OBSERVABLE: selectivity ratio
Could you keep your reply to the number by itself?

Below are worked cases with known answers.
C[N+]1(CCCN2C(=O)NC(Cc3c[nH]c4ccccc34)C2=O)CCC(c2ccccc2)CC1 (stereo not drawn) = 3.5
O=C1NC(Cc2c[nH]c3ccc(Cl)cc23)C(=O)N1CCCN1CCC(c2ccccc2)CC1 (stereo not drawn) = 1.9
O=C1NC(Cc2c[nH]c3ccccc23)C(=O)N1CCCN1CCC(c2ccccc2)CC1 (stereo not drawn) = 2.5

*Q* Requested read-out: selectivity ratio. Entry: CCN(CC)CCCN1C(=O)NC(c2c[nH]c3ccccc23)C1=O (stereo not drawn)
*A* 1.8

*Q* Requested read-out: selectivity ratio. Entry: O=C1NC(Cc2c[nH]c3ccccc23)C(=O)N1CCCN1CCCCC1 (stereo not drawn)
*A* 8

*Q* Requested read-out: selectivity ratio. Entry: O=C1NC(c2c[nH]c3ccccc23)C(=O)N1CCCN1CCCCC1 (stereo not drawn)
*A* 3.1

* * *

Experiment: in vivo
Details: mouse, ip
OBSERVABLE: LD50 at 48 h (mg/kg)
// return numeric value only (unit: mg/kg, not printed)

*Q* Requested read-out: LD50 at 48 h. Entry: CCN(CC)CCCN1C(=O)NC(c2c[nH]c3ccccc23)C1=O (stereo not drawn)
*A* 79

*Q* Requested read-out: LD50 at 48 h. Entry: O=C1NC(Cc2c[nH]c3ccc(Cl)cc23)C(=O)N1CCCN1CCC(c2ccccc2)CC1 (stereo not drawn)
*A* 69

*Q* Requested read-out: LD50 at 48 h. Entry: O=C1NC(c2ccccc2)(c2c[nH]c3ccccc23)C(=O)N1CCCN1CCC(c2ccccc2)CC1 (stereo not drawn)
*A* 63

*Q* Requested read-out: LD50 at 48 h. Entry: CCN(CC)CCCN1C(=O)NC(Cc2c[nH]c3ccc(OC)cc23)C1=O (stereo not drawn)
*A* 61

*Q* Requested read-out: LD50 at 48 h. Entry: O=C1NC(Cc2c[nH]c3ccccc23)C(=O)N1CCCN1CCC(O)(c2ccccc2)CC1 (stereo not drawn)
*A* 57

*Q* Requested read-out: LD50 at 48 h. Entry: CCN(CC)CCCN1C(=O)NC(c2ccccc2)(c2c[nH]c3ccccc23)C1=O (stereo not drawn)
*A* 48

*Q* Requested read-out: LD50 at 48 h. Entry: O=C1NC(Cc2c[nH]c3ccccc23)C(=O)N1CCCN1CCCCC1 (stereo not drawn)
*A* 190

*Q* Requested read-out: LD50 at 48 h. Entry: COc1ccc2[nH]cc(CC3NC(=O)N(CCCN4CCC(c5ccccc5)CC4)C3=O)c2c1 (stereo not drawn)
*A* 24

*Q* Requested read-out: LD50 at 48 h. Entry: CCN(CC)CCCN1C(=O)NC(Cc2c[nH]c3ccc(Cl)cc23)C1=O (stereo not drawn)
*A* 74

*Q* Requested read-out: LD50 at 48 h. Entry: O=C1NC(Cc2c[nH]c3ccccc23)C(=O)N1CCCN1CCC(c2ccccc2)CC1 (stereo not drawn)
*A* 19

*Q* Requested read-out: LD50 at 48 h. Entry: C[N+]1(CCCN2C(=O)NC(Cc3c[nH]c4ccccc34)C2=O)CCC(c2ccccc2)CC1 (stereo not drawn)
*A* 69

*Q* Requested read-out: LD50 at 48 h. Entry: O=C1NC(c2c[nH]c3ccccc23)C(=O)N1CCCN1CCCCC1 (stereo not drawn)
*A* 66

* * *

Experiment: in vivo
Details: mouse, ip
Rule: measured selectivity ratio below 2 gets Y; anything equal to or greater than 2 gets N.

O=C1NC(c2ccccc2)(c2c[nH]c3ccccc23)C(=O)N1CCCN1CCC(c2ccccc2)CC1 (stereo not drawn) [Example 12] = Y

*Q* Input O=C1NC(Cc2c[nH]c3ccccc23)C(=O)N1CCCN1CCC(O)(c2ccccc2)CC1 (stereo not drawn) [Example 13] ; condition: selectivity ratio strictly below 2. Does it hold?
*A* N

* * *

Assay: in vivo
Conditions: mouse, ip
OBSERVABLE: selectivity ratio
Could you keep your reply to the number by itself?

CCN(CC)CCCN1C(=O)NC(c2ccccc2)(c2c[nH]c3ccccc23)C1=O (stereo not shown) = 1.8
CCN(CC)CCCN1C(=O)NC(Cc2c[nH]c3ccc(OC)cc23)C1=O (stereo not shown) = 4.7
CCN(CC)CCCN1C(=O)NC(Cc2c[nH]c3ccc(Cl)cc23)C1=O (stereo not shown) = 1.7

*Q* Requested read-out: selectivity ratio. Entry: COc1ccc2[nH]cc(CC3NC(=O)N(CCCN4CCC(c5ccccc5)CC4)C3=O)c2c1 (stereo not shown)
*A* 2.7
